Target: Serine/threonine-protein kinase ULK2 (Homo sapiens) (UniProt Q8IYT8)
Sequence (Q8IYT8 whole entry): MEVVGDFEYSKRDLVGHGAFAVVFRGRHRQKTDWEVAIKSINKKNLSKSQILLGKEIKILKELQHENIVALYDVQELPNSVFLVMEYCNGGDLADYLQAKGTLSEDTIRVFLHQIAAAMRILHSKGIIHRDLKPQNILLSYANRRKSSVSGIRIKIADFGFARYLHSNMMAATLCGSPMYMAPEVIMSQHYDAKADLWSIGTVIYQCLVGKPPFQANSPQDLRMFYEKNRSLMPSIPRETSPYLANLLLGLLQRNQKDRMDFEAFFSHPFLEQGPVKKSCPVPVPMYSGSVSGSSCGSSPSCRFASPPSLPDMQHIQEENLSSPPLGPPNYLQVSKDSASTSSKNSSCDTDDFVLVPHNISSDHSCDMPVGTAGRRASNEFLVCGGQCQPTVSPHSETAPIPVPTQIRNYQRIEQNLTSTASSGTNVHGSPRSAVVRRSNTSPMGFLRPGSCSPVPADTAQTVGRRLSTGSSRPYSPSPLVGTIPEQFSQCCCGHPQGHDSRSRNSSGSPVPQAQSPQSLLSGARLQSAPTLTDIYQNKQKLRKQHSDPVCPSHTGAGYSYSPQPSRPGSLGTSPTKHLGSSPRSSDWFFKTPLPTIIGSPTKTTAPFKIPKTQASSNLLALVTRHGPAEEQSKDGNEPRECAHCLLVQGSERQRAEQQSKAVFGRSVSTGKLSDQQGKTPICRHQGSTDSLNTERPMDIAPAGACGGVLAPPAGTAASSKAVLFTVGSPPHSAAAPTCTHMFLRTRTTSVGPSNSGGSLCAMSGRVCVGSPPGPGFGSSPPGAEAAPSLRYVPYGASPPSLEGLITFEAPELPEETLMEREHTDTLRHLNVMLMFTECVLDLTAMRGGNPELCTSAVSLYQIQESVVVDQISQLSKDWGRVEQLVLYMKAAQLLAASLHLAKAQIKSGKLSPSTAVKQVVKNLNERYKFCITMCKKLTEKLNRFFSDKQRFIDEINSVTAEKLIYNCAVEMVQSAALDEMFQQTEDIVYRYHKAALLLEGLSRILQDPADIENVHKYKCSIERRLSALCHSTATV
Conditions: at 10 µM

Compound: NC(=O)c1ccc2[nH]c(-c3ccc(Oc4ccc(Cl)cc4)cc3)nc2c1
residual activity, %: 93
//
Compound: Cc1cc2ncc(-c3ccccc3)nc2cc1C
residual activity, %: 88
//
Compound: COc1ccc(CNc2nc(N(CCO)CCO)nc3c2ncn3C(C)C)cc1
residual activity, %: 97
//
Compound: Nc1cccc(-c2cc3c(Oc4cccc(O)c4)ncnc3[nH]2)c1
residual activity, %: 76
//
Compound: Nc1n[nH]c2nnc(-c3c(-c4ccccc4)nn4ccccc34)cc12
residual activity, %: 96
//
Compound: CC(=O)O/N=C1\C(=C2\C(=O)Nc3cc(Br)ccc32)Nc2ccccc21
residual activity, %: 101
//
Compound: O=c1c2ccccc2[nH]c(=S)n1CCN1CCC(=C(c2ccc(F)cc2)c2ccc(F)cc2)CC1
residual activity, %: 98
//
Compound: COc1cc2ncnc(Nc3ccc(Oc4ccccc4)cc3)c2cc1OC
residual activity, %: 95
//
Compound: CCOc1cc2ncnc(Nc3cccc(Br)c3)c2cc1OCC
residual activity, %: 78
//
Compound: C[C@@H](N)[C@H]1CC[C@H](C(=O)Nc2ccncc2)CC1
residual activity, %: 39
//
Compound: O=C(Nc1cccc(Nc2nccc(Nc3cccc(C(F)(F)F)c3)n2)c1)C1CC1
residual activity, %: 88
//
Compound: Oc1ccc(-c2nc(-c3ccc(F)cc3)c(-c3ccncc3)[nH]2)cc1
residual activity, %: 104
//
Compound: Cn1cc(/C=C2\C(=O)Nc3ccc(S(N)(=O)=O)cc32)c2ccccc21
residual activity, %: 24
//
Compound: O=C1Nc2ccccc2/C1=C1/Nc2ccccc2/C1=N\OCCC(O)CO (configuration not stated)
residual activity, %: 74
//
Compound: CO[C@@H]1[C@H](N(C)C(=O)c2ccccc2)C[C@H]2O[C@]1(C)n1c3ccccc3c3c4c(c5c6ccccc6n2c5c31)C(=O)NC4
residual activity, %: 76
//
Compound: Oc1n[nH]c2nnc(-c3c(-c4ccccc4)nn4ccccc34)cc12
residual activity, %: 91
//
Compound: O=C(Nc1cccc(Nc2cc(Nc3cccc(C(F)(F)F)c3)ncn2)c1)C1CC1
residual activity, %: 103
//
Compound: Cc1ccc(NC2=CC(=O)c3sc(C)nc3C2=O)cc1
residual activity, %: 100
//
Compound: COc1ccc(C(=O)Nc2sc3c(c2C(N)=O)CCCC3)cc1OC
residual activity, %: 92
//
Compound: CO[C@H]1C[C@@H]2CC[C@@H](C)[C@@](O)(O2)C(=O)C(=O)N2CCCC[C@H]2C(=O)O[C@H]([C@H](C)C[C@@H]2CC[C@@H](O)[C@H](OC)C2)CC(=O)[C@H](C)/C=C(\C)[C@@H](O)[C@@H](OC)C(=O)[C@H](C)C[C@H](C)/C=C/C=C/C=C/1C
residual activity, %: 98
//
Compound: Nc1nc(Nc2ccc(S(N)(=O)=O)cc2)nn1C(=S)Nc1c(F)cccc1F
residual activity, %: 0
//
Compound: COc1cc2ncnc(Nc3ccc(O)c(Br)c3)c2cc1OC
residual activity, %: 76
//
Compound: CC#CC(=O)Nc1cc2c(Nc3ccc(F)c(Cl)c3)ncnc2cn1
residual activity, %: 97
//
Compound: CC[n+]1c(/C=C/N(C)c2ccccc2)n(-c2ccccc2)c2ccc(-c3nc4ccccc4s3)cc21
residual activity, %: 104
//
Compound: c1ccc(-c2n[nH]c3c2oc2ccccc23)cc1
residual activity, %: 86
//
Compound: O=C1NC(=O)/C(=C/c2ccc3c(c2)OC(F)(F)O3)S1
residual activity, %: 97
//
Compound: Nc1ccc2ncnc(NCCc3ccc(Oc4ccccc4)cc3)c2c1
residual activity, %: 108
//
Compound: Cn1cnc2cc3c(Nc4cccc(Br)c4)ncnc3cc21
residual activity, %: 99
//
Compound: c1ccc2c(-c3ccncc3)c[nH]c2c1
residual activity, %: 97
//
Compound: Oc1ccc(Nc2nc(-c3ccc(Cl)cc3)cs2)cc1
residual activity, %: 105
//
Compound: O=C(O)c1ccc2c3c1cccc3c(=O)n1c3ccccc3nc21
residual activity, %: 48
//
Compound: CO[C@H]1[C@@H](OC)C[C@H](C)[C@@H](OC)C2=CC(=O)C=C(NC(=O)/C(C)=C/C=C/[C@H](OC)[C@@H](OC(N)=O)/C(C)=C/[C@@H]1C)C2=O
residual activity, %: 95
//
Compound: CNc1cc2c(Nc3cccc(Br)c3)ncnc2cn1
residual activity, %: 95
//
Compound: O=C1NC(=O)c2cc(Nc3ccc(F)cc3)c(Nc3ccc(F)cc3)cc21
residual activity, %: 89
//
Compound: c1ccc(-c2n[nH]cc2-c2ccnc3ccccc23)nc1
residual activity, %: 97
//
Compound: CC(=O)c1ccc(N2CCOCC2)cc1O
residual activity, %: 90
//
Compound: O=C1NC(=O)/C(=C\c2ccc3nccnc3c2)S1
residual activity, %: 82

* * *

Biological target: MAP kinase-activated protein kinase 5 (Homo sapiens)
Details: at 1 µM
# residual activity per entry
Experimental endpoint: residual activity (%)

Smiles data: CC(=O)c1ccc(N2CCOCC2)cc1O
Value units: %
Recorded measurement: 77
--
Smiles data: c1ccc(-c2n[nH]c3c2oc2ccccc23)cc1
Value units: %
Recorded measurement: 97
--
Smiles data: O=C1NC(=O)c2cc(Nc3ccc(F)cc3)c(Nc3ccc(F)cc3)cc21
Value units: %
Recorded measurement: 74
--
Smiles data: c1ccc2c(-c3ccncc3)c[nH]c2c1
Value units: %
Recorded measurement: 87
--
Smiles data: Oc1ccc(-c2nc(-c3ccc(F)cc3)c(-c3ccncc3)[nH]2)cc1
Value units: %
Recorded measurement: 110
--
Smiles data: COc1ccc(C(=O)Nc2sc3c(c2C(N)=O)CCCC3)cc1OC
Value units: %
Recorded measurement: 59
--
Smiles data: Nc1ccc2ncnc(NCCc3ccc(Oc4ccccc4)cc3)c2c1
Value units: %
Recorded measurement: 89
--
Smiles data: Cc1cc2ncc(-c3ccccc3)nc2cc1C
Value units: %
Recorded measurement: 101
--
Smiles data: N#Cc1cnc2cnc(NCc3cccnc3)cc2c1Nc1ccc(F)c(Cl)c1
Value units: %
Recorded measurement: 78
--
Smiles data: Nc1n[nH]c2nnc(-c3c(-c4ccccc4)nn4ccccc34)cc12
Value units: %
Recorded measurement: 104
--
Smiles data: CO[C@H]1C[C@@H]2CC[C@@H](C)[C@@](O)(O2)C(=O)C(=O)N2CCCC[C@H]2C(=O)O[C@H]([C@H](C)C[C@@H]2CC[C@@H](O)[C@H](OC)C2)CC(=O)[C@H](C)/C=C(\C)[C@@H](O)[C@@H](OC)C(=O)[C@H](C)C[C@H](C)/C=C/C=C/C=C/1C
Value units: %
Recorded measurement: 57
--
Smiles data: O=c1c2ccccc2[nH]c(=S)n1CCN1CCC(=C(c2ccc(F)cc2)c2ccc(F)cc2)CC1
Value units: %
Recorded measurement: 94
--
Smiles data: COc1cc2ncnc(Nc3ccc(NC(=O)c4ccccc4)cc3)c2cc1OC
Value units: %
Recorded measurement: 105
--
Smiles data: CN(C)c1ccc(/C=C2\C(=O)Nc3ccccc32)cc1
Value units: %
Recorded measurement: 113
--
Smiles data: COc1cc2ncc(-c3ccccc3)nc2cc1OC
Value units: %
Recorded measurement: 125
--
Smiles data: COc1cc2ncnc(N3CCN(C(=O)Nc4ccc(Oc5ccccc5)cc4)CC3)c2cc1OC
Value units: %
Recorded measurement: 78

* * *

Biological target: Fibroblast growth factor receptor 3 (Homo sapiens)
Conditions: at 10 µM
# residual activity per entry

Smiles data: Nc1ccc2ncnc(NCCc3ccc(Oc4ccccc4)cc3)c2c1
residual activity: 33%

Smiles data: C[C@@H](N)[C@H]1CC[C@H](C(=O)Nc2ccncc2)CC1
residual activity: 93%

Smiles data: CC(C)n1cnc2c(NCc3ccccc3)nc(NCCCO)nc21
residual activity: 93%

Smiles data: N#Cc1cnc2cnc(NCc3cccnc3)cc2c1Nc1ccc(F)c(Cl)c1
residual activity: 18%

Smiles data: CO[C@H]1[C@@H](OC)C[C@H](C)[C@@H](OC)C2=CC(=O)C=C(NC(=O)/C(C)=C/C=C/[C@H](OC)[C@@H](OC(N)=O)/C(C)=C/[C@@H]1C)C2=O
residual activity: 102%

Smiles data: O=c1c2ccccc2[nH]c(=S)n1CCN1CCC(=C(c2ccc(F)cc2)c2ccc(F)cc2)CC1
residual activity: 78%

Smiles data: CCOc1cc2ncnc(Nc3cccc(Br)c3)c2cc1OCC
residual activity: 85%

Smiles data: Nc1n[nH]c2nnc(-c3c(-c4ccccc4)nn4ccccc34)cc12
residual activity: 102%

Smiles data: O=C1c2ccccc2-[n+]2ccc3c([nH]c4ccccc43)c21
residual activity: 114%

Smiles data: O=C1Nc2cc(Br)ccc2/C1=C1/Nc2ccccc2/C1=N\O
residual activity: 54%

Smiles data: CCN(CC)CCCCN1c2ccccc2Oc2ccc(Cl)cc21
residual activity: 99%

Smiles data: Nc1cccc(-c2cc3c(Oc4cccc(O)c4)ncnc3[nH]2)c1
residual activity: 9%

Smiles data: COc1cccc(-c2cc(=O)c3ccccc3o2)c1N
residual activity: 99%

Smiles data: Cn1nc2c3c(cccc31)C(=O)c1ccccc1-2
residual activity: 77%

Smiles data: O=[N+]([O-])c1ccc(-c2nc(-c3ccc(F)cc3)c(-c3ccncc3)[nH]2)cc1
residual activity: 99%

Smiles data: COc1ccc(S(=O)(=O)N(CCO)c2ccccc2CN(C)C/C=C/c2ccc(Cl)cc2)cc1
residual activity: 89%

Smiles data: N#C/C(=C(\N)Sc1ccc(N)cc1)c1ccccc1C(F)(F)F
residual activity: 93%

Smiles data: COc1cc2ncnc(Nc3ccc(O)c(Br)c3)c2cc1OC
residual activity: 67%

Smiles data: Ic1cccc(CSc2nnc(-c3ccncc3)o2)c1
residual activity: 93%

Smiles data: Cc1ccc(S(=O)(=O)/C=C/C#N)cc1
residual activity: 118%

Smiles data: COc1cc2ncnc(Nc3ccc(Oc4ccccc4)cc3)c2cc1OC
residual activity: 54%

Smiles data: COc1ccc(CNc2nc(N(CCO)CCO)nc3c2ncn3C(C)C)cc1
residual activity: 109%
